test system: A549 cells; experiment: Annexin V FITC / PI flow cytometry (apoptosis); assay type: cell-based, human; conditions: 24 hours, IC50 concentrations
Label scheme for Necrosis%: lower than 30% is label 0, 30% and above is label 1.

Query: Quick check: does Fc1cccc(C2=Nn3c(CCc4ccc5c(c4)OCO5)nnc3SC2)c1 [Compound 12] have Necrosis% greater than or equal to 30%?
Result: label 1

Query: Please tell me: is the compound CS(=O)(=O)c1ccc(C2=Nn3c(CCc4ccc5c(c4)OCO5)nnc3SC2)cc1 [Compound 9] at or over 30% in terms of Necrosis%?
Result: label 0

Query: Does the reported Necrosis% for N.N.[Cl][Pt][Cl] [Cisplatin, reference compound] fall at or above the 30% mark?
Result: label 0

Query: Confirm if Necrosis% reported for the compound c1ccc(-c2ccc(C3=Nn4c(CCc5ccc6c(c5)OCO6)nnc4SC3)cc2)cc1 [Compound 14] is 30% or above.
Result: label 1

Query: Check if Necrosis% >= 30% (inclusive). Item: FC(F)(F)c1ccc(C2=Nn3c(CCc4ccc5c(c4)OCO5)nnc3SC2)cc1 [Compound 11]
Result: label 0

---

System: A549 human lung adenocarcinoma cells
Experiment: MTT assay, in vitro cytotoxic activity on A549
Assay type: cell-based
Conditions: Homo sapiens, A549, 24 hour incubation, read-out: IC50 values (µg/mL) A549 cell line
Experimental: The in vitro cytotoxic effects of the compounds were determined with the MTT assay. For this purpose, MTT test was performed using A549 and CCD-19Lu cell lines. […] Then the plates were read at a wavelength of 540 nm using ELx808-IU Bio-Tek plate reader. The control cell viability which was not treated with the components was accepted to be 100% and the viability rates of the cells were expressed as %. […] According to the results obtained, the dose range was extended until the IC50 value was determined. […]
Mark each entry Y if its IC50 sits below 6 µg/mL, and N for all others.

Query: Bench note: check whether `c1ccc2cc(C3=Nn4c(CCc5ccc6c(c5)OCO6)nnc4SC3)ccc2c1` shows IC50 below 6 µg/mL
Result: Y

Query: Decide: IC50 of `c1ccc(-c2ccc(C3=Nn4c(CCc5ccc6c(c5)OCO6)nnc4SC3)cc2)cc1` strictly below 6 µg/mL?
Result: Y

Query: is_below(IC50, 6 µg/mL) for `Brc1ccc(C2=Nn3c(CCc4ccc5c(c4)OCO5)nnc3SC2)cc1` ?
Result: N

Query: Take the compound `FC(F)(F)c1ccc(C2=Nn3c(CCc4ccc5c(c4)OCO5)nnc3SC2)cc1` and say whether its IC50 is less than 6 µg/mL.
Result: Y

Query: Hello, I'm reviewing records and need to know if IC50 of `c1csc(-c2ccc(C3=Nn4c(CCc5ccc6c(c5)OCO6)nnc4SC3)cc2)c1` is below 6 µg/mL. Could you check?
Result: Y

Query: Lab log: compare recorded IC50 with 6 µg/mL; is it strictly lower for `CS(=O)(=O)c1ccc(C2=Nn3c(CCc4ccc5c(c4)OCO5)nnc3SC2)cc1` ?
Result: Y

Query: Bench note: check whether `Fc1ccc(C2=Nn3c(CCc4ccc5c(c4)OCO5)nnc3SC2)cc1` shows IC50 below 6 µg/mL
Result: N

Query: Does the reported IC50 of `O=[N+]([O-])c1ccc(C2=Nn3c(CCc4ccc5c(c4)OCO5)nnc3SC2)cc1` stay below 6 µg/mL?
Result: N
